Each recorded value in this set is attributed to patent US11976083B2.

- assayed target: human PAD4 (Homo sapiens)
- Construct: human PAD4 (NM_012387), A2-P663, was PCR amplified; His-SUMO (N, cleaved yes)
- Sequence (Q9UM07 2-663): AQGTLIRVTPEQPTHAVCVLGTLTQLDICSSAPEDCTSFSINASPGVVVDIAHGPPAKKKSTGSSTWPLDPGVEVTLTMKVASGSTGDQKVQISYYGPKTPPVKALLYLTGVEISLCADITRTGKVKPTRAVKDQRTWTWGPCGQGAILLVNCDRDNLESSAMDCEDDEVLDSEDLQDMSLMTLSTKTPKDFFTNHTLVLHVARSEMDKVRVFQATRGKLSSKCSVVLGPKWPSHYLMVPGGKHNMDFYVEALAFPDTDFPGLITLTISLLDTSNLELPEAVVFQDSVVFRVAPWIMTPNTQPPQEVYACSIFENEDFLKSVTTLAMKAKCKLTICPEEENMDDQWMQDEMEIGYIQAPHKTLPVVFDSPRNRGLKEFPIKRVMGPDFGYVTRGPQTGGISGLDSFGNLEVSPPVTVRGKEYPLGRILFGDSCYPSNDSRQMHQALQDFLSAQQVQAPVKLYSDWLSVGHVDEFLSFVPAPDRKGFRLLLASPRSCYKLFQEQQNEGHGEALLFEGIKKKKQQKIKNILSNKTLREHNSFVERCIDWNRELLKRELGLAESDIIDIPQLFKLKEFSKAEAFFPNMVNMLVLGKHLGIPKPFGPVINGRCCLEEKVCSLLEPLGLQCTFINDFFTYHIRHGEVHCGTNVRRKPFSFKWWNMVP
- assay info: In vitro PAD4 BAEE biochemical assay
- particulars: BAEE substrate 3 mM, 5 nM PAD4, 2 mM calcium chloride; geometric mean of multiple experiments
Below, each of the compounds is paired with its reported pIC50 value.
Just the number, please; pIC50 means minus log10 of the concentration in mol/L.

These recorded examples may help you get a feel for the data.
CO[C@@H]1CCN(C(=O)c2cc(F)c3c(c2)nc(-c2cc4ccc5nc4n2CC(F)(F)CCC[C@@H]2C[C@H]2C(=O)N[C@@H]5C)n3[C@@H]2C[C@@H]2F)C[C@@H]1N    7.60
COc1cc(C(=O)N2[C@H]3CC[C@@H]2[C@H](N)C3)cc2nc(-c3cc4ccc5nc4n3CCCCCn3nccc3C(=O)N[C@@H]5C)c(C)n12    7.92
C[C@H]1NC(=O)[C@@H]2C[C@H]2CCCCCn2c(-c3nc4cc(C(=O)N[C@H]5CNCC[C@@H]5F)c(F)cc4n3[C@H]3C[C@@H]3C)cc3ccc1nc32    7.43
C[C@H]1NC(=O)c2ccc(Cl)nc2CCCCCn2c(-c3nc4cc(C(=O)N5C[C@H](N)C[C@@H](F)C5)cc(F)c4n3C3CC3)cc3ccc1nc32    7.77

Now look at this entry.
Given item COc1cc(C(=O)N2[C@H]3CC[C@@H]2[C@H](N)C3)cc2nc(-c3cc4ccc5nc4n3CC[C@H]3C[C@H]3COCCC(=O)N[C@@H]5C)n(C)c12 , the value recorded as its pIC50 is 7.28
